# Target of assay: IL-8 (CXCL8), C-terminally biotinylated, directly surface-captured (Homo sapiens, UniProt P10145 P10145:28-99)
# Sequence (P10145 28-99, one chain of several): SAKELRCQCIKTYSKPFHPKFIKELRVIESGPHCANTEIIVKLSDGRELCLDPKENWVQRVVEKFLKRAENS
# Protocol details: single-molecule TIRF; direct IL-8 capture; 25% horse serum, 21 C; kon 3.21e6, koff 0.54
# Experimental parameters: tags: C-terminal biotin; Chemotactics B-CXCL8-2 ug; immobilized on streptavidin; label: 3'-Cy5
Property measured: Kd (nM)
The reply should be a number in nM, with the unit left off.

Briefly, Kd measured for GGGGGCUUAUCAUUCCAUUUAGUGUUAUGAUAACC (ssRNA, 2'-F at all pyrimidines) [8A-35 (SEQ ID NO 2)] : 168
